Listed here are compounds together with their documented GI50.
Test system: LOX IMVI melanoma
assay.summary: NCI tumour cell line growth inhibition, 48 h

{"compound": "N#CC[C@H](C1CCCC1)n1cc(-c2ncnc3[nH]ccc23)cn1", "GI50": "20.9 µM"}
{"compound": "CCC[CH2][Sn]1([CH2]CCC)[O]C(=O)c2cc(C)ccc2[O]1", "GI50": "0.309 µM"}
{"compound": "COc1ccc(-n2cc(-c3ccc(OC)c(OC)c3)nc2SCc2ccccc2)cc1Cl", "GI50": "34.7 µM"}
{"compound": "CN1CCN(c2ccc3nc4c(nc3c2C(F)(F)F)C(=O)c2ncccc2C4=O)CC1", "GI50": "1.04 µM"}
{"compound": "COc1cc(/C=C/C(=O)c2ccc(Nc3nc(Nc4ccccc4)nc(Nc4ccc(Cl)cc4)n3)cc2)cc(OC)c1OC", "GI50": "7.19 µM"}
{"compound": "N#CC(C#N)=Cc1ccc(-c2ccc(-c3nc4ccccc4o3)cc2)o1", "GI50": "16.6 µM"}
{"compound": "Cc1c(N2C(=O)/C(=C\\c3ccc(N(C)C)cc3)N=C2c2ccccc2)c(=O)n(-c2ccccc2)n1C", "GI50": "> 94.4 µM"}
{"compound": "O=C(/C=C/c1cccc(B(O)O)c1)c1cccc(B(O)O)c1", "GI50": "0.76 µM"}
{"compound": "O=C(Nc1ccc(S(=O)(=O)NC2CCCCCC2)cc1)C(c1ccccc1)S(=O)(=O)c1ccc(F)cc1 (stereo not given)", "GI50": "0.112 µM"}
{"compound": "Cc1cc2nc3c4ccccc4n(CCN(C)C)c3nc2cc1C", "GI50": "0.748 µM"}
{"compound": "C[C@@H]1CN2[C@H]3[C@@H]1CC[C@]31CCC(=O)O[C@]1(C)[C@@H]1CC[C@H]3CCC=C3[C@@H]12", "GI50": "> 70 µM"}
{"compound": "CCN(CC)c1ccc2nc3c4ccccc4c(=NC(=O)c4ccccc4-c4c5ccc(N(CC)CC)cc5[o+]c5cc(N(CC)CC)ccc45)cc-3oc2c1", "GI50": "1.69 µM"}
{"compound": "O=[N+]([O-])c1ccc(-c2ccccc2)c([As](=O)(O)O)c1", "GI50": "8.15 µM"}
{"compound": "CCN1C(=O)N(CC)C2C1NN=c1s/c(=C\\c3ccccc3)c(=O)n12 (stereo not given)", "GI50": "0.194 µM"}
{"compound": "CC[O-].CC[O-].O=C([CH-]C(=O)c1ccccc1)c1ccccc1.O=C([CH-]C(=O)c1ccccc1)c1ccccc1.[Ti+4]", "GI50": "> 100 µM"}
{"compound": "CCS/C(Nc1ccccc1)=C(\\C#N)C(=O)N/N=C/c1ccc(Cl)cc1Cl", "GI50": "5.88 µM"}
{"compound": "Oc1[nH]c2ccc(Cl)cc2c1/C=c1/ccc2c(c1)N=C(c1cc(F)cc(F)c1)N=2", "GI50": "3.52 µM"}
{"compound": "Cc1ccc(-c2cc(/C=N/O)on2)cc1", "GI50": "53.3 µM"}
{"compound": "CC(=O)N[C@@H](Cc1ccc(OP(=O)(O)O)cc1)C(=O)N[C@H]1CCC(=O)N2CCC[C@@H](C(=O)NCc3ccc(O)cc3)N2C1=O", "GI50": "> 25 µM"}
{"compound": "CCOc1cc(/C=N\\NC(=O)N/N=C/c2ccc(O)c(OCC)c2)ccc1O", "GI50": "2.45 µM"}
